For each of the compounds below, state its pIC50.
target: P70S6K (T412E mutant) (Homo sapiens, UniProt P23443, T412E); experiment: p70S6K Enzyme Assay; conditions: 24 μM ATP, 90 min at 25° C., Caliper mobility shift
Sequence (P23443 1-421 T412E limits assumed): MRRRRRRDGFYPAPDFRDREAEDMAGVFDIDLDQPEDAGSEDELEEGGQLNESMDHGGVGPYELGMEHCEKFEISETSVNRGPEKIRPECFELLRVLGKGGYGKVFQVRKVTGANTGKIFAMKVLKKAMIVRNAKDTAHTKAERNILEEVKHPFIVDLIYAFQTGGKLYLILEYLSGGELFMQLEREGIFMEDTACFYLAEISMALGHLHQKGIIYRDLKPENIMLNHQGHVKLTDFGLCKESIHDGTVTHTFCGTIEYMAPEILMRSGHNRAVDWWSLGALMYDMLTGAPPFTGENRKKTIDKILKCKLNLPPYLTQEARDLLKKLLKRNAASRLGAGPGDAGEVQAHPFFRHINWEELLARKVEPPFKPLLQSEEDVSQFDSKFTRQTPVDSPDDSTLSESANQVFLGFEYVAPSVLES
One number for each entry, as −log10 of the molar value.

| CHEMICAL_STRING | pIC50 |
| --- | --- |
| NC(=O)c1cccc2c(N[C@H](CN3CC(F)(F)C3)c3ccc(Cl)cc3)ncnc12 | 7.38 |
| COc1c(F)cc([C@@H](CN2CCC2)Nc2ncnc3c(C(N)=O)cccc23)cc1F | 8.74 |

The record that follows has no pIC50 shown yet.
Lookup result for COc1cccc([C@@H](CN2CCC2)Nc2ncnc3c(C(N)=O)cccc23)c1 ; measured pIC50: 8.36
